For each record, write down the corresponding cytotoxicity at 10 µM.
Test: Toxicity liver stage against HepG2, at 10uM
Assay type: cell-based
Set-up: test concentration 10 uM, cell line HepG2-A16-CD81EGFP
Details: human, HepG2-A16-CD81EGFP cells; read-out: INHIBITION
Give bare numbers, in %.

Some compounds with known cytotoxicity at 10 µM results, for comparison:
COC(=O)c1ccoc1CN(C)CC(=O)N(C)C	3.39
CCN(Cc1ccc2c(c1)OCO2)C(=O)Cn1cccnc1=O	-2.27
CN(C)S(=O)(=O)N1C[C@@H]2COC[C@]2(COc2ccccn2)C1	0.705
NC(=O)C1CN(C(=O)Cc2cccnc2)CCN(C2CCOCC2)C1 (centres undefined)	-9.58
COc1cc(N2C[C@@H]3COC[C@]3(COCc3cccc(C)n3)C2)ncn1	12.4
Cc1nnc(N2CCc3cnc(C(C)C)nc3C2)c(C#N)c1C	-143

Report cytotoxicity at 10 µM for every entry below.
1. COc1ccccc1N1CCC(NCc2c(C)noc2C)C1 (centres undefined)
2. CN(CCNS(C)(=O)=O)C(=O)c1ccc(Cl)c(Cl)c1
3. CC(C)NC(=O)[C@@H]1C[C@@H]2CCN(Cc3ccoc3)C[C@H]2O1

1.81
-52.4
-109
